- target.or.system: E. indica EPSPS Pro106Ser (P106S) mutant, recombinant expressed in E. coli (Eleusine indica, UniProt Q95AK0, P107S)
- Sequence (Q95AK0 entry or part of it P107S): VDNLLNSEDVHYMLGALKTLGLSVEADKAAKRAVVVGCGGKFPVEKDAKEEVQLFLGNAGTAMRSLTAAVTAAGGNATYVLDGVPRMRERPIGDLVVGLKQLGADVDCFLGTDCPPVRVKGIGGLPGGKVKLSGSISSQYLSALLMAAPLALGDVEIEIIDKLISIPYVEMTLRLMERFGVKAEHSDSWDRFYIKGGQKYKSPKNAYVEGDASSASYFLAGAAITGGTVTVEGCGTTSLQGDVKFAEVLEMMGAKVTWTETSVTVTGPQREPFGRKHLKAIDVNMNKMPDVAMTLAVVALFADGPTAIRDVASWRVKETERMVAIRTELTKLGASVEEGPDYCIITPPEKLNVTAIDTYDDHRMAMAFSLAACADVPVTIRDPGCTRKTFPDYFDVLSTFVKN
- procedure.text: biochemical
For each entry below, report its Kd value.

Quick one: Kd for O=C(O)CNCP(=O)(O)O [Glyphosate, glyphosate] ?
25 µM

Quick one: Kd for C=C(OP(=O)(O)O)C(=O)O [PEP, phosphoenolpyruvate] ?
1200 µM

----------
- target.or.system: E. indica EPSPS enzymes (WT, P106L, P106S, TIPS)
- procedure.text: ForteBio Octet binding, range over the EPSPS enzymes
parameter.measured: Kd

Quick one: Kd for C=C(OP(=O)(O)O)C(=O)O [PEP, phosphoenolpyruvate] ?
1100 to 3100 µM
